The reported numbers originate from ChEMBL document CHEMBL1145021.

# assay-method-text: Inhibitory activity against Escherichia coli Beta-ketoacyl-ACP synthase III (FabH) (initiator of the fatty acid synthesis)
We begin with a simple list: items and their reported IC50.

| smiles-entry | IC50 / µM |
| --- | --- |
| O=C(O)CCCn1c(C(=O)O)cc2cc(OCc3c(Cl)cccc3Cl)ccc21 | 1.7 |
| O=C(CCCCCn1c(C(=O)O)cc2cc(OCc3c(Cl)cccc3Cl)ccc21)NS(=O)(=O)c1ccccc1 | 4.6 |
| O=C(O)CCCCCCn1c(C(=O)O)cc2cc(OCc3c(Cl)cccc3Cl)ccc21 | 2 |
| O=C(O)Cn1c(C(=O)O)cc2cc(OCc3c(Cl)cccc3Cl)ccc21 | 78 |
